Recorded cell viability by entry
System: Vero E6
Assay: cell viability relative to DMSO; higher = less toxic
Settings: 72 h; 100 nM
Your answer is read as %, so omit the unit and give the number.

INSERT INTO measurements (molecule, attribute_measured, measured_value) VALUES
  ('N=C(C[C@@H](O)COc1ccccc1-c1ccccc1)N1CCCCC1', 'cell viability', 96.6),
  ('CCCCOc1ccc(C(=O)Nc2ccc(F)cc2F)cc1', 'cell viability', 98.4),
  ('C[C@]12Cc3c[nH]nc3C[C@@H]1CC[C@@H]1[C@@H]2CC[C@@]2(C)[C@H]1CC[C@]2(C)O [stanozolol]', 'cell viability', 102),
  ('Cc1cc(SCc2sc(-c3ccc(C(F)(F)F)c(F)c3)nc2C)ccc1OCC(=O)O [GW-0742]', 'cell viability', 96.7),
  ('O=C(NCCCCN1CCN(c2cccc(Cl)c2Cl)CC1)c1ccc2c(c1)Cc1ccccc1-2 [NGB-2904]', 'cell viability', 93.6);

Quick check: cell viability of O=C1NC(=O)/C(=C/c2cccc(C(F)(F)F)c2)S1 [SMI-4a] ?
99.1

# query: cell viability of entry C=CCN(C)CCCCCCOc1ccc(C(=O)c2ccc(Br)cc2)c(F)c1 [Ro-48-8071]
100

# input molecule: CCCC(=O)O[C@]1(C(=O)CO)CC[C@H]2[C@@H]3CCC4=CC(=O)CC[C@]4(C)[C@H]3[C@@H](O)C[C@@]21C [hydrocortisone-butyrate] ; wanted: its cell viability
91.5

Returns the measured cell viability for the input molecule. Input: CC1CCN(CCCC(=O)c2ccc(F)cc2)CC1 [melperone]
98.9

Entry O=C(O)/C=C/c1ccc(-c2ccc(O)c(C34CC5CC(CC(C5)C3)C4)c2)cc1 [adarotene] : reported cell viability = ?
102

----------
System: Calu-3
Experiment: cell viability relative to DMSO; higher = less toxic
Details: 72 h; 100 nM
Attribute measured: cell viability (%)
Hi! Could you send only the number? It should be in %, unit omitted.

Known cell viability results, listed for orientation:
INSERT INTO results (molecule, attribute_measured, measured_value) VALUES
  ('O=C(CCCCCCC(=O)Nc1ccccc1)NO', 'cell viability', 87.2),
  ('CN1[C@@H]2CC[C@H]1C[C@@H](OC(=O)c1cc(Cl)cc(Cl)c1)C2', 'cell viability', 94.5),
  ('CCCN(CCC)[C@H]1CCc2ccc(O)cc2C1 [7-hydroxy-DPAT]', 'cell viability', 98.7);

Fill in: cell viability of CCC(=O)O[C@]1(C(=O)CCl)[C@@H](C)C[C@H]2[C@@H]3C[C@H](F)C4=CC(=O)C=C[C@]4(C)[C@@]3(F)[C@@H](O)C[C@@]21C [halobetasol-propionate] is ___
77.5

----------
Test system: A549-ACE2
Assay: drug-induced phospholipidosis relative to tamoxifen; higher = more phospholipidosis
Conditions: 0.833333 µM; 48 h
Attribute measured: drug-induced phospholipidosis (%)
Answer format: numeric, % implied, no suffix.

# annotated cases, reported drug-induced phospholipidosis shown
INSERT INTO results (smiles_text, attribute_measured, units_label, measured_value) VALUES
  ('CNC(=O)c1ccccc1Sc1ccc2c(/C=C/c3ccccn3)n[nH]c2c1', 'drug-induced phospholipidosis', '%', 3.96),
  ('C=CCN(C)CCCCCCOc1ccc(C(=O)c2ccc(Br)cc2)c(F)c1', 'drug-induced phospholipidosis', '%', 7.84),
  ('CC(C)Oc1ccc(-c2nc(-c3cccc4c3CC[C@@H]4NCCO)no2)cc1C#N', 'drug-induced phospholipidosis', '%', 1.18);

Quick check: drug-induced phospholipidosis of COc1ccc(NC(=O)c2ccc(-c3ccc(-c4noc(C)n4)cc3C)cc2)cc1N1CCN(C)CC1 ?
17.3

----------
System: A549-ACE2
Assay: drug-induced phospholipidosis relative to tamoxifen; higher = more phospholipidosis
Details: 0.3 µM; 72 h
List of drug-induced phospholipidosis values.
Write it as a number; the unit % goes unstated.

INSERT INTO results (compound, measured_value) VALUES
  ('COc1c(OCCCN2CCOCC2)ccc2c1N=C(NC(=O)c1cnc(N)nc1)N1CCN=C21', -0.924),
  ('C=CCN(C)CCCCCCOc1ccc(C(=O)c2ccc(Br)cc2)c(F)c1', 4.46),
  ('O=c1[nH]c2ccccc2n1C1CCN(CCCC(c2ccc(F)cc2)c2ccc(F)cc2)CC1 [pimozide]', 6.59),
  ('CNC(=O)c1ccccc1Sc1ccc2c(/C=C/c3ccccn3)n[nH]c2c1', 4.56),
  ('C[C@H]1[C@H](NC(=O)/C(=N\OC(C)(C)C(=O)O)c2csc(N)n2)C(=O)N1S(=O)(=O)O', 2.06);

Here is another compound to look at.
Any idea what its drug-induced phospholipidosis is? The compound is CC(C)Oc1ccc(-c2nc(-c3cccc4c3CC[C@@H]4NCCO)no2)cc1C#N
-6.97

----------
System: HepG2
Test: cell viability relative to DMSO; higher = less toxic
Details: 72 h; 10 nM
Counter-ions that a name gives are not always drawn.
Below is a list of entries, each paired with its recorded cell viability value.
# unit: % | format: bare number

Past entries and their recorded results:
INSERT INTO results (compound, measured_value) VALUES
  ('CN1CCN(CCCN2c3ccccc3Sc3ccc(S(=O)(=O)N(C)C)cc32)CC1 [thioproperazine]', 103),
  ('CC(C)(C)Nc1nc(Nc2ccc(C(N)=O)cc2)cc(N)c1C#N [TC-Mps1-12]', 89.8),
  ('CC(C)c1ccc(-c2cc(=O)c3ccccc3o2)cc1 [MN-64]', 97.6),
  ('CCOC(=O)Nc1cc(-c2ccc(C)c(NS(C)(=O)=O)c2)nn2c(C)nnc12 [bromosporine]', 98.9),
  ('Cc1ccccc1CN1C(=O)C2=C(CCN(Cc3ccccc3)C2)N2CCN=C12 [ONC201]', 93.7),
  ('O=C1c2ccccc2-c2c(NCCc3ccccc3)c(=O)[nH]c3cccc1c23 [BRD7389]', 101),
  ('CCNC1(C(N)=O)CCN(c2ncnc3c2nc(-c2ccccc2Cl)n3-c2ccc(Cl)cc2)CC1 [CP-945,598]', 95.6),
  ('c1ccc(OCc2ccc(CCCN3CCOCC3)cc2)cc1 [fomocaine]', 106);

Look up cell viability: CCCOC(=O)c1ccc(O)cc1 [propyl 4-hydroxybenzoate]
102

Param item = CN[C@H](CC(C)C)C(=O)N[C@H]1C(=O)N[C@@H](CC(N)=O)C(=O)N[C@H]2C(=O)N[C@H]3C(=O)N[C@H](C(=O)N[C@H](C(=O)O)c4cc(O)cc(O)c4-c4cc3ccc4O)[C@H](O[C@H]3C[C@](C)(N)[C@@H](O)[C@H](C)O3)c3ccc(c(Cl)c3)Oc3cc2cc(c3O[C@@H]2O[C@H](CO)[C@@H](O)[C@H](O)[C@H]2O[C@H]2C[C@](C)(NCc3ccc(-c4ccc(Cl)cc4)cc3)[C@@H](O)[C@H](C)O2)Oc2ccc(cc2Cl)[C@H]1O [oritavancin] ; retrieve measured cell viability.
106

Name the reported cell viability value associated with the compound Cc1cc(-c2ccc(/N=N/c3ccc4c(S(=O)(=O)O)cc(S(=O)(=O)O)c(N)c4c3O)c(C)c2)ccc1/N=N/c1ccc2c(S(=O)(=O)O)cc(S(=O)(=O)O)c(N)c2c1O [evans-blue]
89.6

For O=C1NC(=O)/C(=C/c2cccc(C(F)(F)F)c2)S1 [SMI-4a] , what is its reported cell viability?
112

Which cell viability value belongs to COc1ccc(OC)c([C@@H](O)CNC(=O)CN)c1 [midodrine] ?
102

For the compound O=C(O)c1cccnc1Nc1cccc(C(F)(F)F)c1 [niflumic-acid] , what cell viability is on record?
101

Would you kindly share the measured cell viability for CN1[C@@H]2CC[C@H]1C[C@@H](OC(=O)N1Cc3ccccc3NC1=O)C2 [DAU-5884] ?
93.3

Requested field: cell viability. Item: CC(C)(C)NCC(O)COc1cccc2[nH]c(=O)[nH]c12 (centres undefined)
93.3

Any idea what its cell viability is? The compound is C[C@@]1(F)[C@H](O)[C@@H](CO)O[C@H]1n1ccc(N)nc1=O [PSI-6130]
91.8

Quick one: cell viability for CC[C@H]1OC(=O)[C@H](C)[C@@H](O[C@H]2C[C@@](C)(OC)[C@@H](O)[C@H](C)O2)[C@H](C)[C@@H](O[C@@H]2O[C@H](C)C[C@H](N(C)C)[C@H]2O)[C@](C)(OC)C[C@@H](C)C(=O)[C@H](C)[C@@H](O)[C@]1(C)O [clarithromycin] ?
104

Reported cell viability, compound CCCC[C@@]1(C2CCCC2)Cc2cc(OCCCC(=O)O)c(Cl)c(Cl)c2C1=O [DCPIB] : ____
98.1

Bench note: what cell viability did CN[C@H](CC(C)C)C(=O)N[C@H]1C(=O)N[C@@H](CC(N)=O)C(=O)N[C@H]2C(=O)N[C@H]3C(=O)N[C@H](C(=O)N[C@H](C(=O)O)c4cc(O)cc(O)c4-c4cc3ccc4O)[C@H](O)c3ccc(c(Cl)c3)Oc3cc2cc(c3O[C@@H]2O[C@H](CO)[C@@H](O)[C@H](O)[C@H]2O[C@H]2C[C@](C)(N)[C@H](O)[C@H](C)O2)Oc2ccc(cc2Cl)[C@H]1O [VANCOMYCIN HYDROCHLORIDE] show?
105

Value lookup for cell viability; key = Cc1cc(SCc2sc(-c3ccc(C(F)(F)F)c(F)c3)nc2C)ccc1OCC(=O)O [GW-0742]
74.6

Given CN(C)Cc1c(C(=O)NCCOc2ccc(C(=O)NO)cc2)oc2ccccc12 , state its recorded cell viability.
92.7

Name the recorded cell viability for COc1ccc(CC2NCCc3cc(OC)c(OC)cc32)cc1OC (centres undefined) [tetrahydropapaverine] .
99.9

Recorded values, source the supplement of paper PMC13380429.
